Reference source for all entries: the supplement of paper PMC13380429

Tested on: Vero E6 infected with SARS-CoV-2
Experiment: SARS-CoV-2 infection rate relative to infected DMSO; higher = more infection, active = 60 or less
Settings: 24 h
Outcomes: active, inactive

INSERT INTO assay_data (compound, answer_label) VALUES
  ('COc1ccnc2[nH]cc(C(=O)C(=O)N3CCN(C(=O)c4ccccc4)C[C@H]3C)c12 (10 µM)', 'inactive'),
  ('C[C@@H](NC(=O)c1ncnc(N)c1Cl)c1ncc(C(=O)Nc2cc(C(F)(F)F)c(Cl)cn2)s1 (10 µM)', 'inactive'),
  ('CC(C)C[C@H](NC(=O)[C@H](CCc1ccccc1)NC(=O)CN1CCOCC1)C(=O)N[C@@H](Cc1ccccc1)C(=O)N[C@@H](CC(C)C)C(=O)[C@@]1(C)CO1 [carfilzomib] (0.833333 µM)', 'active'),
  ('CNCc1ccc(C)c(NC(=O)c2ccc(Nc3nc(-c4ccccc4)c4ccccc4n3)cc2)c1 (0.833333 µM)', 'inactive'),
  ('CCCc1nc(C)c2c(=O)nc(-c3cc(S(=O)(=O)N4CCN(CC)CC4)ccc3OCC)[nH]n12 [vardenafil] (10 µM)', 'inactive'),
  ('O=[N+]([O-])c1cc(O)c(O)c([N+](=O)[O-])c1 (10 µM)', 'inactive'),
  ('CN(C)CCCSc1ccccc1NC(=O)/C=C/c1ccccc1 [cinanserin] (10 µM)', 'inactive'),
  ('N#Cc1c(O)c2c(-c3ccc(-c4ccccc4O)cc3)csc2[nH]c1=O (10 µM)', 'inactive'),
  ('COc1ccccc1OCC(O)COC(N)=O (centres undefined) [methocarbamol] (10 µM)', 'inactive'),
  ('CCOc1ccc(S(=O)(=O)O)c2cccnc12 [actinoquinol] (10 µM)', 'inactive'),
  ('O=C1c2c(O)cc(O)cc2O[C@H](c2cc(O)c(O)c(O)c2)[C@H]1O [dihydromyricetin] (10 µM)', 'inactive'),
  ('OC[C@H]1O[C@H](O[C@H]2O[C@H](CO)[C@@H](O)[C@H](O)[C@H]2O)[C@H](O)[C@@H](O)[C@@H]1O [cabaletta] (10 µM)', 'inactive'),
  ('CC(C)c1ccc2c(c1)CC[C@H]1[C@](C)(CN)CCC[C@]21C [lylamine] (0.833333 µM)', 'inactive'),
  ('CC(=O)c1c(O)cc(C)oc1=O [dehydroacetic-acid] (10 µM)', 'inactive'),
  ('c1ccc(C2CC2)c(OCC2=NCCN2)c1 [cirazoline] (10 µM)', 'inactive'),
  ('N#Cc1ccc(N2CCN(C(=O)COc3ccc4[nH]cc(CCN)c4c3)CC2)cc1 [donitriptan] (10 µM)', 'inactive'),
  ('CC(C)(C)c1ccc(C(=O)Nc2cn3cc(-n4ccnc4)ccc3n2)cc1 (10 µM)', 'inactive'),
  ('O=C(O)c1ccccc1O [salicylic-acid] (10 µM)', 'inactive'),
  ('C1CCC(C(CC2CCCCN2)C2CCCCC2)CC1 (centres undefined) [perhexiline] (0.833333 µM)', 'inactive'),
  ('N[C@H]1CC[C@H](N[C@@H]2C[C@H]2c2ccccc2)CC1 (10 µM)', 'inactive'),
  ('Cc1ccc2c(-c3ccccc3)nc(=O)n(C(C)C)c2c1 [proquazone] (10 µM)', 'inactive'),
  ('Cn1cccc1/C=C1\C(=O)NC(=O)c2ccccc21 (0.833333 µM)', 'inactive'),
  ('Cc1[nH]nc(C(F)(F)F)c1Cc1sc2c(c1C(=O)N1C[C@](C)(O)CO1)c(=O)n(C)c(=O)n2C(C)C (10 µM)', 'inactive'),
  ('CN1CCN(c2c(F)cc3c(=O)c(C(=O)O)cn(CCF)c3c2F)CC1 [fleroxacin] (10 µM)', 'inactive'),
  ('Cn1cncc1[C@@](N)(c1ccc(Cl)cc1)c1ccc2c(c1)c(-c1cccc(Cl)c1)cc(=O)n2C [tipifarnib] (0.833333 µM)', 'inactive'),
  ('O=P(O)(NCCCl)NCCCl [palifosfamide] (10 µM)', 'inactive'),
  ('C#C[C@]1(O)CC[C@H]2[C@@H]3CCC4=CC(=O)CC[C@]4(C)[C@H]3CC[C@@]21C [ethisterone] (10 µM)', 'inactive'),
  ('COc1cc2c(NC3CCN(C)CC3)nc(N3CCCN(C)CC3)nc2cc1OCCOCCN(C)C (10 µM)', 'inactive'),
  ('CCN(Cc1ccncc1)C(=O)C(CO)c1ccccc1 (centres undefined) [tropicamide] (10 µM)', 'inactive'),
  ('Cc1c(O)c(=O)n(-c2ccccc2)n1C [4-hydroxy-phenazone] (10 µM)', 'inactive'),
  ('CC(C)(C)C(=O)OCOC(=O)[C@@H]1N2C(=O)C[C@H]2S(=O)(=O)C1(C)C [sulbactam-pivoxil] (10 µM)', 'inactive'),
  ('O=C(Nc1ccc(C(=O)O)c(O)c1)c1ccccc1 [benzoylpas] (10 µM)', 'inactive'),
  ('Cc1cccc(C)c1OCC(C)N (centres undefined) [mexiletine] (10 µM)', 'inactive'),
  ('N#C/C(=C1/SC[C@@H](c2ccc(Cl)cc2Cl)S1)n1ccnc1 [luliconazole] (10 µM)', 'inactive');
